- Tested on: CEM-SS cells
- assay-details: Cytotoxicity of the combinations in the XTT dye reduction assay (mock infected CEM-SS cells)
- run-conditions: in combination with N-ethyl-4,4-difluoro-1-{(2S,3S)-2-hydroxy-3-[(3-hydroxy-2,5-dimethylbenzoyl)amino]-4-phenylbutanoyl}-3,3-dimethyl-L-prolinamide
reported-property: Cytotoxicity

| molecule | obs-value |
| --- | --- |
| CC(C)OC(=O)OCOP(=O)(CO[C@H](C)Cn1cnc2c(N)ncnc21)OCOC(=O)OC(C)C.O=C(O)/C=C/C(=O)O [Tenofovir] | insignificant |
| Cc1ccnc2c1NC(=O)c1cccnc1N2C1CC1 [Nevirapine] | insignificant |
| O=C1Nc2ccc(Cl)cc2[C@@](C#CC2CC2)(C(F)(F)F)O1 [Efavirenz] | none |
| Cc1c(O)cccc1C(=O)N[C@@H](CSc1ccccc1)[C@H](O)CN1C[C@H]2CCCC[C@H]2C[C@H]1C(=O)NC(C)(C)C (relative stereo) [Nelfinavir] | none |

Each recorded value in this set is attributed to patent US20050171038A1.
